# testDescription: COS7 lysate on small-molecule microarray, probe aHis, 635 nm (AID 1123);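 note: z-score combines 667nm fluorescence intensity with signal-to-noise per printed compound spot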
# appliedConditions: COS7 cell lysate, fluorescence, higher = more signal
measuredParameter: composite z-score

molecule	composite z-score
Cc1ccccc1C(O)C1C=CC2C(=O)N(C)C(=O)C2N1N1CCCCC1 (stereo not given)	2.92
O=C1C=CC(=O)[C@@H]2CC(COc3ccccc3)=C3[C@@H](CCc4ccccc4)OB(O)C[C@@H]3[C@H]12	0.113
COc1ccc([Si](C)(C)[C@H]2[C@H](CCn3cc([C@H](O)c4ccccc4)nn3)O[C@@]3(C(=O)N(Cc4cccc(N5CCC5=O)c4)c4ccccc43)[C@@H]2C)cc1	1.12
Cc1ccc(S[C@]2(C(=O)NC3CC3)CC(=O)N(Cc3ccccc3)[C@@H]2c2ccc(CO)cc2)cc1	2.78
COC(=O)[C@@]1(Cc2ccc(F)cc2)[C@H]2c3cc(C(=O)N4CCCC4)n(Cc4cccc5ccccc45)c3C[C@H]2CN1C(=O)c1ccccc1	3.22

Requested field: composite z-score. Item: COCCOC(=O)N1C(=O)[C@@]2(c3cc(C#CCC(C(=O)OC)C(=O)OC)ccc31)[C@H](c1ccccc1OCCO)N1[C@H](c3ccccc3)[C@H](c3ccccc3)OC(=O)[C@H]1[C@@H]2C(N)=O
2.03

Likewise for CC(C)N1C(=O)C[C@@](C(=O)NCc2ccccc2)(c2ccc([N+](=O)[O-])cc2)[C@H]1c1ccc(CO)cc1 ?
2.37
